assay: Half life in Sprague-Dawley rat at 25 mg/kg, po measured during 1 to 24 hrs by LC-MS method; assay type: ADME, organism-based; design: dose 25 mg/kg, route oral; details: in vivo
Readout Kind: half-life (h)
Unit h implied. Number only.

For record CCc1cc(OC(F)(F)F)cc2c1OC(C(F)(F)F)C(C(=O)O)=C2 (stereo unspecified) the listed half-life is 9.54

---

assay: Cmax in Sprague-Dawley rat at 10 mg/kg, iv measured during 1 to 24 hrs by LC-MS method; assay type: ADME, organism-based; set-up: dose 10 mg/kg, route intravenous; conditions: in vivo
Readout Kind: Cmax (µg/mL)
Use µg/mL as the unit, but write only the number.

Per the records, this molecule ( [2H]C([2H])([2H])C([2H])([2H])c1cc(OC(F)(F)F)cc2c1OC(C(F)(F)F)C(C(=O)O)=C2 (stereo unspecified) ) has Cmax equal to 51.6
